Numbers sourced from paper PMC7150870.

- Test system: HEK293T
- Assay type: cell-based, human
The reader will find reported combination index, mixture of DAS (6.58 nM) values listed item by item below.
Just the number in Add, nothing appended.

Query: Requested field: combination index, mixture of DAS (6.58 nM). Item: COc1cc(O)c2c(=O)oc3cc(O)cc(C)c3c2c1
Response: 0.90

Query: Requested field: combination index, mixture of DAS (6.58 nM). Item: Cc1cc(O)cc2oc(=O)c3c(O)cc(O)cc3c12
Response: 0.91

Query: Requested field: combination index, mixture of DAS (6.58 nM). Item: CC(C)C[C@@H]1NC(=O)[C@H](C)N(C)C(=O)CNC(=O)/C(=C/c2ccccc2)N(C)C1=O
Response: 0.92
